Molecular target: Human Cav2.2 channels (Homo sapiens)
Assay: Block of Cav2.2 (N-type) channels expressed in HEK293 cells
Settings: read-out: Cav 2.2 IC50
Hi there, I'd appreciate the recorded pIC50 for every entry that follows.
As a rule, pIC50 stands for the negative log10 of the concentration, concentration in M.

Quick check: pIC50 on Human Cav2.2 channels (Homo sapiens), item CC(C)(C)c1cc(N2CCN(C(=O)c3ccc(OCC(F)(F)F)nc3)CC2)cc(C(C)(C)C)c1 ?
5.83

Lab note: need pIC50 for CCCSc1ncccc1C(=O)N1CCN(c2cc(C(C)(C)C)cc(C(C)(C)C)c2)CC1 on Human Cav2.2 channels (Homo sapiens), anyone have it?
6.07

# get_value(readout= pIC50, system= Human Cav2.2 channels (Homo sapiens)) for CC(C)(C)C(=O)Nc1cc(C(=O)N2CCN(c3cc(C(C)(C)C)cc(C(C)(C)C)c3)CC2)ccn1
6.00

Observed pIC50 on Human Cav2.2 channels (Homo sapiens) for CC(C)(C)C(=O)Nc1ccncc1C(=O)N1CCN(c2cc(C(C)(C)C)cc(C(C)(C)C)c2)CC1 , please.
6.52

Lookup: pIC50 / Human Cav2.2 channels (Homo sapiens) / Cc1ccc(OCC(=O)N2CCN(c3cc(C(C)(C)C)cc(C(C)(C)C)c3)CC2)c(C)c1
5.86

Hello, I am looking for reported pIC50 with Human Cav2.2 channels (Homo sapiens) for Cc1nc(C)c(C(=O)N2CCN(c3cc(C(C)(C)C)cc(C(C)(C)C)c3)CC2)s1 . Could you help?
6.11

# returns recorded pIC50 (system: Human Cav2.2 channels (Homo sapiens)) for CC(C)(C)c1cc(N2CCN(C(=O)c3ccc(F)cc3)CC2)cc(C(C)(C)C)c1
5.66

Lab note: need pIC50 for CC(C)(C)c1cc(N2CCN(C(=O)c3ccccc3)CC2)cc(C(C)(C)C)c1 on Human Cav2.2 channels (Homo sapiens), anyone have it?
5.83

----------
Target: Human Cav2.2 channels (Homo sapiens, UniProt Q00975)
Construct: expressed in transfected cells
Sequence (Q00975 whole entry): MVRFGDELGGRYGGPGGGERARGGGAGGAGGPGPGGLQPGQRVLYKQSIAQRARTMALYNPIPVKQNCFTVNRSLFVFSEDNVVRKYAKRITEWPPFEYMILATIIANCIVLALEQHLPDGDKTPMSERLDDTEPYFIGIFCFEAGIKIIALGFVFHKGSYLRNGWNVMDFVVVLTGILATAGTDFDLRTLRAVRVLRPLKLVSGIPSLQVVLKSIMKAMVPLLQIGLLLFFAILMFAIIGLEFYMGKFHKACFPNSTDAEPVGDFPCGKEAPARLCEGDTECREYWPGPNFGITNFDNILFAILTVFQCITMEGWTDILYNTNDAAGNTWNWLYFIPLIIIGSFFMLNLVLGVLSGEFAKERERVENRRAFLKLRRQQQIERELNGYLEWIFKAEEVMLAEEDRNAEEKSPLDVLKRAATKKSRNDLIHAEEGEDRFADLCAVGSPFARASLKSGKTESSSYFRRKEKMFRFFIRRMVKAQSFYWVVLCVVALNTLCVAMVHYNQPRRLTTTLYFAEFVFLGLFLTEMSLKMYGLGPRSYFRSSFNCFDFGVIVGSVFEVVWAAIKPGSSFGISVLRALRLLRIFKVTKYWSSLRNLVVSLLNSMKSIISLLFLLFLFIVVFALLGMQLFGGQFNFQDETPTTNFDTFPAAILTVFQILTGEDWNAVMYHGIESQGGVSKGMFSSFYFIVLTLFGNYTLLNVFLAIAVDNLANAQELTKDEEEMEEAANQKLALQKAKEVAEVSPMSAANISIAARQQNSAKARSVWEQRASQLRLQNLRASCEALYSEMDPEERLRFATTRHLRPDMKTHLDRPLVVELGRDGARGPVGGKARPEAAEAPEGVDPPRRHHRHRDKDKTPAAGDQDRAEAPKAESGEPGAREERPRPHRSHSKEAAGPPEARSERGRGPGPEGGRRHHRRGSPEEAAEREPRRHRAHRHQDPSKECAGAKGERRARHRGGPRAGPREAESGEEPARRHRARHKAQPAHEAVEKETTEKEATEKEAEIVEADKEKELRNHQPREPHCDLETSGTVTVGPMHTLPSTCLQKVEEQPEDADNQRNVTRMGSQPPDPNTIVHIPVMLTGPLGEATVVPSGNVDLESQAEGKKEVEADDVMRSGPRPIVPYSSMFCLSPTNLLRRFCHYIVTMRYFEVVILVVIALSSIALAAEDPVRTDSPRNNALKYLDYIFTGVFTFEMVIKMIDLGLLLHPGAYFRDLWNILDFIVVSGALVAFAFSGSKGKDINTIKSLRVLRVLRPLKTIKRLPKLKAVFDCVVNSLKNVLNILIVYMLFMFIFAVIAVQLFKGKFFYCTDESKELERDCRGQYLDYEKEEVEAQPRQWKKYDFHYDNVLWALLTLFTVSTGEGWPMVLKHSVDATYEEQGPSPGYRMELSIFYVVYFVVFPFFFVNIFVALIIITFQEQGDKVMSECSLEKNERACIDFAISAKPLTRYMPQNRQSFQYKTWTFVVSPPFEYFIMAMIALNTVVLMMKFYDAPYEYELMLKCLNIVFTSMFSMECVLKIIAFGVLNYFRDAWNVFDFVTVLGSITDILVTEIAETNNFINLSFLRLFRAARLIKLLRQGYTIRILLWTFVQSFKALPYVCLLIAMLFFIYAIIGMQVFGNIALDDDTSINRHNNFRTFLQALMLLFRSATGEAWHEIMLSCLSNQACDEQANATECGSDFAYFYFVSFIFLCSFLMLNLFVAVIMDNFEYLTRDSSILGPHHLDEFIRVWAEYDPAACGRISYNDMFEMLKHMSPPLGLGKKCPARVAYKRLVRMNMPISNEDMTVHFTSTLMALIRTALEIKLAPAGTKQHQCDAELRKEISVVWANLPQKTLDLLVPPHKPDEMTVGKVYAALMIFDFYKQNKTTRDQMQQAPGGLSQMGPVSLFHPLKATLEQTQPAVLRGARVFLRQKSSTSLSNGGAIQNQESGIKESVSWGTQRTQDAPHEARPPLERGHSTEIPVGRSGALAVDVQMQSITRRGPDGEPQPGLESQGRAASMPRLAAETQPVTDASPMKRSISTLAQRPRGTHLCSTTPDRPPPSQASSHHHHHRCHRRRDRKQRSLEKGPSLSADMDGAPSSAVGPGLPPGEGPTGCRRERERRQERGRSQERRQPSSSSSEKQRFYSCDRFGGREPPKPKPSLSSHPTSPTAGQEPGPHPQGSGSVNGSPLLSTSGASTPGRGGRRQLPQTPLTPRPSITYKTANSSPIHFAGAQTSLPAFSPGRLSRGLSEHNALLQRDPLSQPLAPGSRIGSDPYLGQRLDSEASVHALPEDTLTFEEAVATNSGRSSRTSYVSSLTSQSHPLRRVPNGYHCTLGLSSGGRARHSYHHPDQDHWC
Sequence (P54289 25-956 partner limits assumed): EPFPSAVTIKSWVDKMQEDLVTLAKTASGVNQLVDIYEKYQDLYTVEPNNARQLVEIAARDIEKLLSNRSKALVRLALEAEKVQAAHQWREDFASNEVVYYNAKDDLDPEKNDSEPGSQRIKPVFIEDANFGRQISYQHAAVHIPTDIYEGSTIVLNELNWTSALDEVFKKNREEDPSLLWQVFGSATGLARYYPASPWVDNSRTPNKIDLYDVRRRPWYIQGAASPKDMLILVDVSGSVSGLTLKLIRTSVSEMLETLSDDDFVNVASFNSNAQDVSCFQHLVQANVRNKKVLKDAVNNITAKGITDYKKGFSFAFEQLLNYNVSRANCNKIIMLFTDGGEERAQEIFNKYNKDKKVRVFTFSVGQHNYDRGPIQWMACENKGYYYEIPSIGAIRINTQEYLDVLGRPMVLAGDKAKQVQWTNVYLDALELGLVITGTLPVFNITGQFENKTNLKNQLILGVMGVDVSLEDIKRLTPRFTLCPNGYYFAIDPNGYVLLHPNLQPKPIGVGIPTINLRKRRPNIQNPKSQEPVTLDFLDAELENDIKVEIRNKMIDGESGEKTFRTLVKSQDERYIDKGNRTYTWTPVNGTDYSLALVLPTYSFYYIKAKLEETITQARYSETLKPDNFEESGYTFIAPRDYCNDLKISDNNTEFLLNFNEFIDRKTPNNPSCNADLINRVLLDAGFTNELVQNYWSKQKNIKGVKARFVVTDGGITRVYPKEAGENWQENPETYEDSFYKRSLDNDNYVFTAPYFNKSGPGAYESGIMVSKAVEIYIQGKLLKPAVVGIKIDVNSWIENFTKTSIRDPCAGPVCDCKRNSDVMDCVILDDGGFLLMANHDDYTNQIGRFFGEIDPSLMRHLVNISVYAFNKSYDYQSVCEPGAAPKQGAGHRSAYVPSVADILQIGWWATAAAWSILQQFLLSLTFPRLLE
Sequence (P54289 957-1103 partner limits assumed): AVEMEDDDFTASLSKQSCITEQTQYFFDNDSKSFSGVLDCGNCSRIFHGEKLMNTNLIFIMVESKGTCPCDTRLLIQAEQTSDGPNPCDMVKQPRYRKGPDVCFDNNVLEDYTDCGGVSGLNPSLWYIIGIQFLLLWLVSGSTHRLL
Sequence (P54284 whole entry partner): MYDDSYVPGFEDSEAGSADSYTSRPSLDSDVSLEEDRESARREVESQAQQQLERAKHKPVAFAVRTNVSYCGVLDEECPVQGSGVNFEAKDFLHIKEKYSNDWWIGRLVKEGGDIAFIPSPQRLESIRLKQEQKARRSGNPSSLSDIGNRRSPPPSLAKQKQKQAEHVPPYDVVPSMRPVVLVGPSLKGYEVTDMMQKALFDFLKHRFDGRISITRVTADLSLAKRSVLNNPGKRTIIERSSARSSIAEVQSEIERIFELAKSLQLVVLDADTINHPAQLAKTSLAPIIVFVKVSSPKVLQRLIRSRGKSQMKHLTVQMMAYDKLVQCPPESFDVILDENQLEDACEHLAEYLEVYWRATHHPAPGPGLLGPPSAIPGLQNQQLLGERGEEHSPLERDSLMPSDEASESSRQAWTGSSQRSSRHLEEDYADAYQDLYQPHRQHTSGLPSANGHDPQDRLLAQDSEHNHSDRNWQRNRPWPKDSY
Test: Block of Cav2.2 (N-type) channels expressed in HEK293 cells
Assay type: cell-based
Details: HEK293; read-out: Cav 2.2 % Inh @ 10 μM
For each of the compounds below, state its inhibition at 10 µM.
Your answer is read as %, so omit the unit and give the number.

Lookup: inhibition at 10 µM / Human Cav2.2 channels (Homo sapiens, UniProt Q00975) / CC(C)(C)c1cc(N2CCN(C(=O)c3ccc(OCC(F)(F)F)nc3)CC2)cc(C(C)(C)C)c1
101

What reported inhibition at 10 µM corresponds to Cc1ccc(S(C)(=O)=O)cc1C(=O)N1CCN(c2cc(C(C)(C)C)cc(C(C)(C)C)c2)CC1 on Human Cav2.2 channels (Homo sapiens, UniProt Q00975)?
87

What inhibition at 10 µM appears in the records for this compound with Human Cav2.2 channels (Homo sapiens, UniProt Q00975)? Cc1ccc(C(=O)N2CCN(c3cc(C(C)(C)C)cc(C(C)(C)C)c3)CC2)s1
87

Requested read-out inhibition at 10 µM, target or system Human Cav2.2 channels (Homo sapiens, UniProt Q00975), entry CC(C)(C)c1cc(N2CCN(C(=O)c3cc(S(C)(=O)=O)ccc3Cl)CC2)cc(C(C)(C)C)c1
89

The measurements presented in this section are drawn from patent US20090270413A1.
